tested on: P. aeruginosa 23587; assay: Diameter of zone of inhibition of antimicrobial agents with or without efflux pump inhibitor; format: cell-based; conditions: clinical isolates of P. aeruginosa
MEASURE: inhibition of MDR RND efflux pumps, concluded from potentiation

MOLECULE	TEST_RESULT
CO/N=C(\C(=O)N[C@@H]1C(=O)N2C(C(=O)[O-])=C(C[N+]3(C)CCCC3)CS[C@H]12)c1csc(N)n1 [Cefepime, cefepime]	inhibit RND pumps
CC(C)(O/N=C(\C(=O)N[C@@H]1C(=O)N2C(C(=O)[O-])=C(C[n+]3ccccc3)CS[C@H]12)c1csc(N)n1)C(=O)O	inhibit RND pumps

Where do the numbers come from? From patent US20130296228A1.
